Assay: A CellTox Green Cytotoxicity Assay to monitor cytotoxicity in HEK293 cells - 8 hour (AID 1224884); further: nearly all actives have a fitted effect of over 35% in size
Details: CellTox Green fluorescence; series mostly up to 76.8 µM
Results filed as inconclusive are left out. Active and inactive are the calls of the source. The call rests on the fitted dose curve; in most records, active means well fitted activation curve with a large enough effect in the repeat runs; inconclusive means weak or mixed curves; inactive means flat fitted curve, though single readings scatter.
Result category, one only: Y = active, N = inactive

Answered cases to consult:
compound	category_label
CCOC(=O)NNc1ccc(N(CC)CC(C)O)nn1 (stereo not drawn)	N
CC[C@H](C)COC(=O)/C=C/c1ccc(N=Cc2ccc(OC)cc2)cc1	N
OCC(F)(F)F	N

### Prompt What call does the record list for CC(C(=O)O)c1ccc2c(c1)[nH]c1ccc(Cl)cc12 (stereo not drawn) ?
### Response N

### Prompt For O=[N+]([O-])c1cccc(C(F)(F)F)c1 , which call appears in the assay record?
### Response N

### Prompt # outcome recorded in this test, key = CC(C)CCOC(=O)/C=C/c1ccccc1
### Response N

### Prompt Answer briefly: the call reported for O=C(O)CN(CCN(CC(=O)O)CC(=O)O)CC(=O)O in this assay.
### Response Y

### Prompt Short answer needed: outcome of this test for C=CC(C)(CCC=C(C)C)OC=O (stereo not drawn) ?
### Response N

### Prompt Could you kindly confirm the outcome this assay logged for CCCCCCCCCCCCOCCOCCOCCOCCOCCOCCOCCOCCOCCO ?
### Response Y

###

Known activity change, positive = activation of a selection of molecules
Test: qHTS assay to identify small molecule agonists of the estrogen related receptor (ERR) signaling pathway from Tox21 library (AID 1224849); further: on the % scale 0 is the no-effect control and ±100 the full control effect; nearly all actives have a fitted effect of over 15% in size
Conditions: ERR reporter cell line, ONE-Glo luciferase, 18 h; at 42.5 µM (top of the series)
Calls of active or inactive are those of the source. The call rests on the fitted dose curve.

Here is how some molecules turned out for activity change, positive = activation.
molecule	activity change, positive = activation
COc1c(C)c2c(c(O)c1C/C=C(\C)CCC(=O)OCCN1CCOCC1)C(=O)OC2	-23.6% (inactive)
C#C[C@]1(OC(C)=O)CC[C@H]2[C@@H]3CCC4=C/C(=N/O)CC[C@@H]4[C@H]3CC[C@@]21CC	-41.4% (inactive)
CCCCCCCCCCCCCC[N+](C)(C)C	-50% (inactive)
COC(=O)C1=C(C)NC(C)=C(C(=O)OCCN2CCN(C(c3ccccc3)c3ccccc3)CC2)C1c1cccc([N+](=O)[O-])c1 (stereo not drawn)	-44.8% (inactive)
CCCCCCCC/C=C\CCCCCCCCN	-2.95% (inactive)

### Prompt Reported activity change, positive = activation for CC[N+](CC)(CC)CCOc1ccc(/C=C/c2ccccc2)cc1 : what is it?
### Response -43% (inactive)

### Prompt What value of measured activity change, positive = activation is listed for Cc1cc(-n2nc3ccc(Cl)cc3n2)c(O)c(C(C)(C)C)c1 ?
### Response 2.34% (inactive)

### Prompt Suppose we examine the molecule CN1CCC[C@@H]1CCO[C@](C)(c1ccccc1)c1ccc(Cl)cc1 ; what activity change, positive = activation value has been reported?
### Response -35.9% (inactive)

###

Test: qHTS assay to identify small molecule antagonists of the estrogen related receptor (ERR) signaling pathway from Tox21 library - cell viability counter screen (AID 1224834); further: nearly all actives have a fitted effect of over 30% in size
Details: ERR reporter cells viability, CellTiter-Fluor, 17.5 h; series mostly up to 92.4 µM
Inconclusive results are not listed. Activity calls are given as the source filed them. Calls come from the whole dose curve; as a rule, active = well fitted cell-killing curve with a large enough effect in the repeat runs; inconclusive = weak or mixed curves; inactive = flat fitted curve, though single readings scatter.
Your reply should match one of these outcome classes. active, inactive

Example entries and their recorded answers appear below.
molecule	category_label
CC[N+](CC)(CC)CCOC(=O)C(C1CCCC1)C1CCCC1	inactive
CCCCC(CC)CN1CN(CC(CC)CCCC)CC(C)(N)C1 (stereo unspecified)	inactive
O=[N+]([O-])c1cccc(C(F)(F)F)c1	inactive
COc1cccc(OC)c1C(=O)O	inactive
CCCCCCC1CCCC(=O)O1 (stereo unspecified)	inactive

### Prompt // return assay outcome for CCCC1CCC(=O)CC1
### Response inactive

### Prompt For this molecule, state the assay outcome: [Cl][Pt-2]([Cl])([Cl])[Cl]
### Response inactive

### Prompt Recorded call for Cc1ccc(C(=O)O)cc1 ?
### Response inactive

### Prompt // param item: CCO[C@@H]1O[C@H](C(COCc2ccccc2)OCc2ccccc2)[C@H](OCc2ccccc2)[C@H]1O (stereo partly specified) ; yields the recorded call
### Response active

### Prompt What did this assay record as the result for COc1ccc(-c2coc3cc(O)ccc3c2=O)cc1 ?
### Response inactive

### Prompt Outcome logged for COCCOc1cc2cc(C(=O)NC3CCN(C(C)C)CC3)n(CC(=O)Nc3ccc(Cl)cn3)c2cn1 in this assay:
### Response inactive

### Prompt // return assay outcome for O=C(O)c1cccc(C(F)(F)F)c1
### Response inactive

### Prompt Would you mind telling me which call this test gave O=C(O)c1cc(O)c2ccccc2c1O ?
### Response active

### Prompt Give the logged outcome of this assay for the following molecule: CC1=CCC(=C(C)C)CC1
### Response inactive

### Prompt # lookup: test call for CCc1ccc(Br)cc1
### Response inactive

Data provenance is PubChem BioAssay (Tox21).
